Test: Antagonism towards electric shock convulsions in the mouse
Assay type: in vivo
Settings: po, 0.5 h; mouse, 200 mg/kg os, 35 volt; read-out: Anti-convulsion activity, electric shock, mouse, % att.
Please mark label 1 if the recorded inhibition in vivo at 200 mg/kg is equal to or greater than 20%, and label 0 if it falls below.

Worked cases, answers included:
[
  {
    "SMILES REPR": "Cn1c(-c2ccc(F)cc2)c(CCN2CCN(c3ccccc3)CC2)sc1=O",
    "LABEL VALUE": "label 1"
  },
  {
    "SMILES REPR": "O=c1[nH]c(-c2ccc(Cl)cc2)c(CCN2CCN(c3ccccc3)CC2)s1",
    "LABEL VALUE": "label 0"
  },
  {
    "SMILES REPR": "O=c1[nH]c(-c2ccc(F)cc2)c(CCN2CCN(c3ccccc3)CC2)s1",
    "LABEL VALUE": "label 0"
  }
]

Incoming: Test whether the compound O=c1[nH]c(-c2ccc(Cl)cc2)c(CN2CCCCC2)s1 records inhibition in vivo at 200 mg/kg of 20% or higher.
Outgoing: label 1

Incoming: Test whether the compound COc1ccc(-c2[nH]c(=O)sc2CCN2CCN(c3ccccc3)CC2)cc1 records inhibition in vivo at 200 mg/kg of 20% or higher.
Outgoing: label 0

###

Each record here notes measured ED50.
System: nor-adrenalin
Test: Antagonism towards a lethal dose of nor-adrenalin in the rat (α-adrenolytic activity)
Assay type: in vivo
Details: Rattus norvegicus, po, 1 h, read-out: α-adrenolytic activity lethal NA rat ED50
Numbers only; they are read as mg/kg.

[
  {
    "SMILES REPR": "Cn1c(-c2ccc(F)cc2)c(CCN2CCN(c3ccccc3)CC2)sc1=O",
    "MEASURED TARGET": "nor-adrenalin",
    "ED50 [mg/kg]": 13.3
  },
  {
    "SMILES REPR": "COc1ccc(-c2[nH]c(=O)sc2CCN(C)CCc2ccccc2)cc1",
    "MEASURED TARGET": "nor-adrenalin",
    "ED50 [mg/kg]": 5
  },
  {
    "SMILES REPR": "COc1ccc(-c2[nH]c(=O)sc2CCN2CCN(c3ccccc3)CC2)cc1",
    "MEASURED TARGET": "nor-adrenalin",
    "ED50 [mg/kg]": 45
  }
]

Note to self: ED50 recorded for CC(=O)n1c(-c2ccc(F)cc2)c(CCN2CCN(c3ccccc3)CC2)sc1=O was 12.8

Note to self: ED50 recorded for O=c1[nH]c(-c2ccc(F)cc2)c(CCN2CCN(c3ccccc3)CC2)s1 was 45

Note to self: ED50 recorded for O=c1[nH]c(-c2ccccc2)c(CCN2CCN(c3ccccc3)CC2)s1 was 18

###

Each record here notes measured LD50.
Assay: Acute toxicity rat LD50 iv
Details: in vivo
Numbers only; they are read as mg/kg.

Note to self: LD50 recorded for CCN(CC)CCc1sc(=O)[nH]c1-c1ccc(F)cc1 was 84

Note to self: LD50 recorded for Cl.O=c1[nH]c(-c2ccc(F)cc2)c(CCN2CCOCC2)s1 was 130

Note to self: LD50 recorded for COc1ccc(-c2[nH]c(=O)sc2CCN(C)CCc2ccccc2)cc1 was 24

Note to self: LD50 recorded for Cl.O=c1[nH]c(-c2ccc(F)cc2)c(CCN2CCCCC2)s1 was 62
